pIC50 overview
- target-under-test: human liver glycogen phosphorylase a (HLGPa) (Homo sapiens, UniProt P06737)
- Construct: creating a full-length cDNA fused at the 5′ end to codons for methionine-glycine-alanine-histidine; 6xHis tag (leader Met-Gly-Ala-His6-Gly-Gly) (N); made in house; host or cells: E. coli (bacterial expression plasmid pTXK1007LTev)
- Sequence (P06737 2-847 limits assumed): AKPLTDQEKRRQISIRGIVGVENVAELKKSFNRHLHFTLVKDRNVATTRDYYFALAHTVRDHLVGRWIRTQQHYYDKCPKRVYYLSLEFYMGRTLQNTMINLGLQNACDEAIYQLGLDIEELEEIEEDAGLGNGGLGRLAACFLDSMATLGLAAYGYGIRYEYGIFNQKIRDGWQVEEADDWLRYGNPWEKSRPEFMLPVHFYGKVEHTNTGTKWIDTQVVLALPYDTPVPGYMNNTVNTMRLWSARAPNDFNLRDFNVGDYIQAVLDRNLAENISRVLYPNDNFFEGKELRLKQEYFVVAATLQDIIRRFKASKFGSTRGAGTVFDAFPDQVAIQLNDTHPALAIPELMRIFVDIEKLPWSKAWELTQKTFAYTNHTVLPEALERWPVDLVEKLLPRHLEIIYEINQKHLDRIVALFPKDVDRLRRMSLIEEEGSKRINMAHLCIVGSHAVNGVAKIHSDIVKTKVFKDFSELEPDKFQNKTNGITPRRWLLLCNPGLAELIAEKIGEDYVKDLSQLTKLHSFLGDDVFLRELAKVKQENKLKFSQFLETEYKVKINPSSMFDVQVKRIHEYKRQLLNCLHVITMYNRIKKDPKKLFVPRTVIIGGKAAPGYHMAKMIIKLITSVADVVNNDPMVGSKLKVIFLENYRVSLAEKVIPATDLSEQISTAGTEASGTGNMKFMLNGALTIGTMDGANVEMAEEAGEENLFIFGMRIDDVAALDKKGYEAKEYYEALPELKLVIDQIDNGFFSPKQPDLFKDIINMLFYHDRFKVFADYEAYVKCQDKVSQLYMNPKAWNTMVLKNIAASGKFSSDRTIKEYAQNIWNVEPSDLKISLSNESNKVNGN
- protocol: Human liver glycogen phosphorylase a enzymatic activity assay (coupled, fluorescent resorufin readout, with and without 10 mM glucose)
- Format: biochemical
- assay-setup: human liver glycogen phosphorylase a enzymatic activity assay
Give only the number. pIC50 is defined as minus log10 of concentration in molar units.

# example entries with known answers
In [3]: df
Out[3]:
                                   compound  result_type  value_observed
0  Cc1cccc(Cl)c1NC(=O)Nc1sc2c(c1C(=O)N[C@@H](CC(=O)O)C(=O)O)CCCC2        pIC50            5.44
1  CCc1cc(C)c(NC(=O)Nc2cc3ccccc3cc2C(=O)N[C@H](C(=O)O)C2CCCCC2)c(C)c1        pIC50            8.70
2  Cc1cccc(C)c1NC(=O)Nc1sc2c(c1C(=O)N[C@H](C(=O)O)C1CCCCC1)CCCC2        pIC50            5.25
3  COC(=O)[C@@H](NC(=O)c1sc(-c2ccncc2)cc1NC(=O)Nc1c(Cl)cccc1Cl)C1CCCCC1        pIC50            4.83
4  COc1ccc(-c2cc(NC(=O)Nc3c(C)cc(C)cc3C)c(C(=O)NC3(C(=O)O)CC3)s2)cc1        pIC50            6.47

Exam item: What measured pIC50 is associated with `O=C(Nc1cc(-c2ccc(OC(F)(F)F)cc2)sc1C(=O)O)Nc1c(Cl)cccc1Cl` on human liver glycogen phosphorylase a (HLGPa) (Homo sapiens, UniProt P06737)?
Marked response: 5.67

Exam item: Lookup `Cc1cc(Br)cc(C)c1NC(=O)Nc1cc2ccccc2cc1C(=O)N[C@H](C(=O)O)C1CCCCC1`
Marked response: 6.66

Exam item: Try this compound too: `Cc1cc(C)c(NC(=O)Nc2cc([N+](=O)[O-])ccc2C(=O)N[C@H](C(=O)O)C2CCCCC2)c(C)c1`
Marked response: 6.26

Exam item: // same read-out, input: `Cc1cc(-c2ccccc2)cc(C)c1NC(=O)Nc1cc2ccccc2cc1C(=O)NC1(C(=O)O)CCCCCC1`
Marked response: 6.47

Exam item: // query: `Cn1cc(-c2cc(C(=O)N[C@H](C(=O)O)C3CCCCC3)c(NC(=O)Nc3c(Cl)cccc3Cl)s2)cn1`
Marked response: 6.59

Exam item: Try COc1cc(NC(=O)Nc2c(C)cccc2Cl)c(C(=O)NC(C(=O)O)c2ccccc2)cc1OC (stereo not drawn) next.
Marked response: 4.91

Exam item: Continue with `Cc1cccc(Cl)c1NC(=O)Nc1cc2ccccc2cc1C(=O)N[C@@H](C)C(=O)O`
Marked response: 6.28

The measurements presented in this section are drawn from patent US20070249670A1.
